Entries annotated with measured koff
# EXPERIMENTAL_TARGET: T1, cynomolgus IL-23 (cynomolgus)
# T1 construct: also called cyno IL-23; cIL-23
# ASSAY_REMARKS: SPR Biacore, cyno IL-23 on chip
Numbers only here, please. The scale is s⁻¹.

| BINDER | READING_UNIT | VALUE_REPORTED |
| --- | --- | --- |
| P23IL3C1 (VHH, p40+ Nanobody) VHH: EVQLVESGGGSVQAGGSLRLSCKVSGIMFSDKGMGWFRQAPGKERETVAATNWSGGSTYYADSVKGRFTISRDNYKNTLHLQMASLKPEDTGIYYCAAAGDSWNSRRIEDYDYWGQGTPVTVSS | s⁻¹ | 5.9e-05 |

Inquiry: # input binder: P23IL-22E11 (VHH) VHH: EVQLVESGGGLVQAGGSLRLSCAASGRTFSWSAVGWFRQAPGKEREFVAAIRWSGGSPYYADSVKDRFTISRDNAKNTVYLQMNSLRPEDTAVYLCGETSLFPTSRGSHYDTWGQGTQVTVSS ; wanted: its koff
Reply text: 0.00023

Inquiry: Bench note: what koff did P23IL-22D7 (VHH, p40+ Nanobody) VHH: EVQLVESGGGLVQAGGSLRLSCASSGRTFSIYARGWFRQAPGKEREFVAAIRSGLTTYSDSVKGRFTISRDIAKNTVFLQMNSLKSEDTAVYYCAAAVNYFTDFTDYSKRDSYDYWGQGTQVTVSS show?
Reply text: 0.00023

This collection of values is drawn from patent US20110053865A1.
